- System: UISO
- protocol.summary: qHTS assay to identify novel small-molecules to repurpose for Merkel cell carcinoma treatment (AID 1296009); also: % is scaled to controls: 0 for no effect and ±100 for the full control effect; nearly all actives have a fitted effect of over 60% in size
- particulars: MCC and control cell lines, CellTiter-Glo viability, 72 h; at 16.1 µM (top of the series); series mostly up to 46 µM
- Description: MCC is a rare and aggressive neuroendocrine skin cancer with limited treatment options. Approximately 80% of MCCs have the Merkel cell polyomavirus (MCPyV) DNA integrated into the host genome (virus-positive: VP-MCC) and viral oncogenes drive oncogenesis. The remaining MCCs are virus-negative (VN-MCC) and are caused by UV mutagenesis. […] Using cell viability as a readout (CellTiter-Glo assay) we found both overlapping and distinct drugs that can be repurposed for the treatment of VP-MCC and VN-MCC. […]
Records with an inconclusive call do not appear. The source made the active and inactive calls. Calls follow the shape of the dose curve; as a rule, active = well fitted inhibition curve with a large enough effect; inconclusive = small, poorly fitted or top-dose-only effect; inactive = flat fitted curve, though single readings scatter.
parameter: outcome

# annotated cases, reported outcome shown
compound=CC(C)=CCC[C@@](C)(O)[C@H]1CC=C(C)CC1 reported=inactive
compound=CN/C(=C\[N+](=O)[O-])NCCSCc1csc(CN(C)C)n1 reported=inactive
compound=CC(=O)N[C@@H](Cc1ccc(O)cc1)C(=O)O reported=inactive
compound=Cc1cccc(C)c1NC(=O)CC12CCCN1CCC2 reported=inactive

Q: Request - read-out outcome | tested on UISO | compound CCN(CC)CCOC(=O)C(c1ccccc1)c1ccccc1
A: inactive

Q: Form entry - test system: UISO; read-out: outcome; compound: CC(=O)N[C@@H](CC(C)C)C(=O)O
A: inactive

Q: For UISO, provide outcome of Cn1c([N+](=O)[O-])cnc1COC(N)=O please.
A: inactive

Q: Identify the measured outcome of CCOc1ccc(C(=O)OCCN(CC)CC)cc1 for UISO.
A: inactive

Q: Give the reported outcome for CC(=O)N[C@H]1[C@H]([C@H](O)[C@H](O)CO)OC(C(=O)O)=C[C@@H]1N=C(N)N (system: UISO).
A: inactive

Q: Value wanted: outcome (UISO) of entry Cc1c(I)c(=O)n(-c2ccccc2)n1C
A: inactive

Q: Fill in the recorded outcome for this compound, with UISO as test system: CC(C)CCCC(C)CCCC(C)CCCCC(C)CCCC(C)CCCC(C)C (stereo not drawn)
A: inactive

Q: So what outcome did O=C(CCBr)N1CCN(C(=O)CCBr)CC1 get with UISO?
A: inactive

Q: API: value(readout=outcome, system=UISO) for record Cc1ncc(CO)c(CN)c1O
A: inactive

Q: Field: outcome (UISO). Entry: CC(=O)SC[C@@H](Cc1ccccc1)C(=O)NCC(=O)OCc1ccccc1
A: inactive

Q: Observed outcome on UISO for Cc1cc(C)nc(NS(=O)(=O)c2ccc(N)cc2)n1 , please.
A: inactive

Q: Recorded outcome for COc1ccccc1OCC(O)CO (stereo not drawn) with UISO, please?
A: inactive

Q: Look up outcome with UISO for this compound: CC(C(=O)O)c1ccc2c(c1)Cc1cccnc1O2 (stereo not drawn)
A: inactive

Q: Item: CC1CC(OC(=O)c2ccccc2O)CC(C)(C)C1 (stereo not drawn) Test system: UISO Read-out: outcome Value: ?
A: inactive

----------
- Test system: KB-3-1
- protocol.summary: Cytotoxic Profiling of Annotated Libraries Using Quantitative High-Throughput Screening (AID 1296008); also: % is scaled to controls: 0 for no effect and ±100 for the full control effect; nearly all actives have a fitted effect of over 60% in size
- particulars: Five cell lines viability, CellTiter-Glo ATP luminescence, 48-72 h, stronger effect = lower value
Records with an inconclusive call do not appear.
Listed here: items and their measured max response.
Entry rule: numbers only, all in %.

Past entries and their recorded results:
compound=CN1CCN(C(=O)C2CCCCC2)CC1 reported=-4.36
compound=NC(N)=NCCN1CCCCCCC1 reported=18.1

Could you now look at the following compound, please?
Q: Any idea what its max response is? The compound is CC(C)CCCC(C)CCCC(C)CCCCC(C)CCCC(C)CCCC(C)C (stereo not drawn)
A: 12.8
